Data origin, for the record: patent US9040526B2

# STUDY_TARGET: CCR2 receptor (Homo sapiens)
# Construct: THP-1 human monocytic leukemic cell line, which expresses endogenous CCR2; endogenous in cells
# Sequence (P41597 1-360 isoform P41597-2): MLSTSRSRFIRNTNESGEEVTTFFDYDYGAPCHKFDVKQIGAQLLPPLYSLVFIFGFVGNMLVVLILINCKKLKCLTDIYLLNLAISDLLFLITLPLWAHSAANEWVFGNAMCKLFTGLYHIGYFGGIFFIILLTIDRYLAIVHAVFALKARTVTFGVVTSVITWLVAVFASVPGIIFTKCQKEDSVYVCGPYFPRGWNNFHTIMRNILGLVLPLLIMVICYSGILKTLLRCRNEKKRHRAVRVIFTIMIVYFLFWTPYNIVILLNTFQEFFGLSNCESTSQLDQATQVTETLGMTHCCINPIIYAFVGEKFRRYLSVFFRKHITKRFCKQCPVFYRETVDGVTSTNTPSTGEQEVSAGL
# PROTOCOL_DETAILS: THP-1 monocytic cell binding: whole cell-based radioligand competition assay (125I-human MCP-1)
# CONDITION_SUMMARY: THP-1 cells expressing endogenous CCR2; 125I-MCP-1 tracer 0.2 nM; n = 1 unless otherwise noted
For each record, write down the corresponding pKi.
In textbook form, pKi equals minus log to base ten of the concentration in mol/L.

Quickly give me recorded pKi for CC(C)C1(CCNC2CCOCC2)CC2Oc3ccc(C(F)(F)F)cc3CN2C1=O (single isomer, unassigned) [3h, diastereomer 2]
6.31

Quickly give me recorded pKi for CC(C)C1(CCN2CCC(n3c(=O)[nH]c4ccccc43)CC2)CC2Oc3ccc(C(F)(F)F)cc3CN2C1=O (stereo not shown)
5.89

Quickly give me recorded pKi for CC(C)C1(CCN2CCCCC2)CCN(Cc2cc(C(F)(F)F)cc(C(F)(F)F)c2)C1=O (stereo not shown)
6.01

Quickly give me recorded pKi for CC(C)C1(CCN2CC[C@@]3(C=Cc4ccccc43)[C@@H](C)C2)CCN(Cc2cc(C(F)(F)F)cc(C(F)(F)F)c2)C1=O (stereo partly shown)
6.13

Quickly give me recorded pKi for CC(C)C1(CCN2CCN(C)CC2)CC2Oc3ccc(C(F)(F)F)cc3CN2C1=O (stereo not shown)
5.10

Quickly give me recorded pKi for CC(C)C1(CCN2CCC(Cc3ccccc3)CC2)CC2Oc3ccc(C(F)(F)F)cc3CN2C1=O (stereo not shown)
5.83

Quickly give me recorded pKi for CC(C)C1(CCN2CCC(c3ccccc3)CC2)CC2Oc3ccc(C(F)(F)F)cc3CN2C1=O (single isomer, unassigned) [3b, diastereomer 2]
7.42

Quickly give me recorded pKi for CC(C)C1(CCN2CCc3ccccc3C2)CC2Oc3ccc(C(F)(F)F)cc3CN2C1=O (stereo not shown)
5.41

Quickly give me recorded pKi for CC(C)C1(CCN2CCC3(C=Cc4ccccc43)CC2)CC2Oc3ccc(C(F)(F)F)cc3CN2C1=O (single isomer, unassigned) [3f, diastereomer 1]
7.34

Quickly give me recorded pKi for CC(C)C1(CCN2CCN(c3ccc(F)cc3)CC2)CC2Oc3ccc(C(F)(F)F)cc3CN2C1=O (stereo not shown)
5.85

Quickly give me recorded pKi for CC(C)C1(CCN2CCC3(C=Cc4ccccc43)CC2)CC2Oc3ccc(C(F)(F)F)cc3CN2C1=O (single isomer, unassigned) [3f, diastereomer 2]
7.96

Quickly give me recorded pKi for CC(C)C1(CCCN2CCC(c3ccccc3)CC2)CCN(Cc2cc(C(F)(F)F)cc(C(F)(F)F)c2)C1=O (stereo not shown)
5.45

Quickly give me recorded pKi for CC(C)C1(CCN2CCC(c3ccccc3)CC2)CC2Oc3ccc(C(F)(F)F)cc3CN2C1=O (single isomer, unassigned) [3b, diastereomer 1]
6.03

Quickly give me recorded pKi for CC(C)C1(CCN2CCC(c3ccccc3)C2)CC2Oc3ccc(C(F)(F)F)cc3CN2C1=O (stereo not shown)
7.64

Quickly give me recorded pKi for CC(C)C1(CCNC(C)(C)C)CC2Oc3ccc(C(F)(F)F)cc3CN2C1=O (stereo not shown)
5.60

Quickly give me recorded pKi for CC(C)C1(CCN2CCC(O)(c3ccccc3)CC2)CC2Oc3ccc(C(F)(F)F)cc3CN2C1=O (stereo not shown)
6.82

Quickly give me recorded pKi for CC(C)C1(CCN2CCC(c3cccc(C(=O)O)c3)CC2)CC2Oc3ccc(C(F)(F)F)cc3CN2C1=O (stereo not shown)
5.58

Quickly give me recorded pKi for CC(C)C1(CCNC2CCC(O)CC2)CC2Oc3ccc(C(F)(F)F)cc3CN2C1=O (mixture of isomers)
6.19

Quickly give me recorded pKi for CC(C)C1(CCN2CCC(c3ccccc3)CC2)CCN(Cc2cc(C(F)(F)F)cc(C(F)(F)F)c2)C1=O (stereo not shown)
6.03
